IC50 for inhibition of 125I-SI Ang II binding overview
Measurement target: novel, non-AT1, non-AT2 angiotensin binding site (neurolysin) (Rattus norvegicus, UniProt P42676)
Sequence (P42676 38-704): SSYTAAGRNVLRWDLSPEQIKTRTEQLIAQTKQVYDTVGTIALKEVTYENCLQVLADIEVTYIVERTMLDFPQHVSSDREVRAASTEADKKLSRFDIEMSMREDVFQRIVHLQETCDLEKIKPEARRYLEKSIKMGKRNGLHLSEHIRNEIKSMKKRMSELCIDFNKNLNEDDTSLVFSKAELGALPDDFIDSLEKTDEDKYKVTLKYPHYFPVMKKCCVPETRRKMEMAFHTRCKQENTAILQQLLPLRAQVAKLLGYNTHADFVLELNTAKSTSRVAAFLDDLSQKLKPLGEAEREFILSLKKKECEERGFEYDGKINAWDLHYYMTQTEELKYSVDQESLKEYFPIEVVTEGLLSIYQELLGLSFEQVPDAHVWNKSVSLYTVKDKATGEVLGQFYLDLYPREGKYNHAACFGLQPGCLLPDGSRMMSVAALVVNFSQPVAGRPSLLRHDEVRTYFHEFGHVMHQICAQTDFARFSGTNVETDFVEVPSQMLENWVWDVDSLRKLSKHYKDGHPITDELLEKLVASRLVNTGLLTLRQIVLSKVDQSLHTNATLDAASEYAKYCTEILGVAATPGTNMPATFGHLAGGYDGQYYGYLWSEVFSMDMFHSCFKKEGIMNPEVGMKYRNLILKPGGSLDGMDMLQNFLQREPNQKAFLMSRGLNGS
Experimental protocol: Inhibition or enhancement of PCMB-unmasked 125I-SI Ang II binding in membranes
Condition: testis; 100 μM PCMB
Measurement kind: IC50 for inhibition of 125I-SI Ang II binding (µM)

compound="[Cl][Hg][Cl] [HgCl2, mercuric chloride]" unit_annotation=µM measurement=11.0
compound="NCCS [cysteamine]" unit_annotation=µM measurement=138
compound="O=[N+]([O-])[O-].[Ag+] [AgNO3, silver nitrate]" unit_annotation=µM measurement=21.3
compound="COC([CH2][Hg+])CNC(=O)c1ccccc1OCC(=O)O.[OH-] (stereo not shown) [mersalyl acid]" unit_annotation=µM measurement=2.27

The measured values listed here are drawn from paper PMC4152863.
